test: Solubility in water; format: physicochemical; details: pH 7.5, water
MEASUREMENT_LABEL: solubility

# solubility lookup, item COc1ccccc1-c1nccc(COc2ccccc2CC(Oc2ncnc3sc(-c4ccc(F)cc4)c(-c4ccc(OCCN5CCN(C)CC5)c(Cl)c4C)c23)C(=O)O)n1 (stereo not shown) [Compound A]
< 1 µg/mL
